Test: CHI Log D procedure
Assay type: physicochemical
Details: pH 7.4, CHI Log D
OUTCOME MEASURE: chromatographic logD
# answer = number (no unit)

Sample CC(=O)N1CCC[C@]12CC=CCCCC1(CCCC=CCCCOC(=O)N3CC[C@@](C(=O)N[C@@H](Cc4ccsc4)C(=O)N[C@@H](Cc4csc5ccccc45)C(=O)N[C@@H](CCC(N)=O)C(N)=O)(C3)NC(=O)[C@H](CC(N)=O)NC(=O)[C@H](Cc3ccccc3)NC(=O)[C@H](CCCCNC(=O)c3ccc(CN4CCOCC4)cc3)NC(=O)[C@H](C)NC(=O)[C@H](CC(=O)O)NC(=O)[C@H](CC(=O)O)NC1=O)NC(=O)[C@H](CC(C)(C)C)NC(=O)[C@H](CC(=O)O)NC2=O (stereo partly drawn) — what was its chromatographic logD? 1.67

Now consider CC(=O)N1CCC[C@]12CC=CCCCC1(CCCC=CCCCOC(=O)N3CC[C@@](C(=O)N[C@@H](Cc4ccsc4)C(=O)N[C@@H](Cc4csc5ccccc45)C(=O)N[C@@H](Cc4c[nH]cn4)C(N)=O)(C3)NC(=O)[C@H](CC(C)C)NC(=O)[C@H](Cc3ccccc3)NC(=O)[C@H](C)NC(=O)[C@H](C)NC(=O)[C@H](CC(=O)O)NC(=O)[C@H](CC(=O)O)NC1=O)NC(=O)[C@H](CC(C)(C)C)NC(=O)[C@H](CC(=O)O)NC2=O (stereo partly drawn) . 2.3

# repeat for CC(=O)N1CCC[C@]12CC=CCCCC1(CCCC=CCCCCCC[C@@](C)(C(=O)N[C@@H](Cc3ccccc3[N+](=O)[O-])C(=O)N[C@@H](Cc3csc4ccccc34)C(=O)N[C@@H](CCC(N)=O)C(N)=O)NC(=O)[C@H](CC(N)=O)NC(=O)[C@H](Cc3ccccc3)NC(=O)[C@H](C)NC(=O)[C@H](C)NC(=O)[C@H](CCC(=O)O)NC(=O)[C@H](CC(=O)O)NC1=O)NC(=O)[C@H](C)NC(=O)[C@H](CC(=O)O)NC2=O (stereo partly drawn) 2

----------
For each record, write down the corresponding pIC50.
Target: beta-catenin/TCF4 engagement (Homo sapiens)
Construct: expressed in transfected cells; host or cells: HEK293
Sequence (P35222 whole entry): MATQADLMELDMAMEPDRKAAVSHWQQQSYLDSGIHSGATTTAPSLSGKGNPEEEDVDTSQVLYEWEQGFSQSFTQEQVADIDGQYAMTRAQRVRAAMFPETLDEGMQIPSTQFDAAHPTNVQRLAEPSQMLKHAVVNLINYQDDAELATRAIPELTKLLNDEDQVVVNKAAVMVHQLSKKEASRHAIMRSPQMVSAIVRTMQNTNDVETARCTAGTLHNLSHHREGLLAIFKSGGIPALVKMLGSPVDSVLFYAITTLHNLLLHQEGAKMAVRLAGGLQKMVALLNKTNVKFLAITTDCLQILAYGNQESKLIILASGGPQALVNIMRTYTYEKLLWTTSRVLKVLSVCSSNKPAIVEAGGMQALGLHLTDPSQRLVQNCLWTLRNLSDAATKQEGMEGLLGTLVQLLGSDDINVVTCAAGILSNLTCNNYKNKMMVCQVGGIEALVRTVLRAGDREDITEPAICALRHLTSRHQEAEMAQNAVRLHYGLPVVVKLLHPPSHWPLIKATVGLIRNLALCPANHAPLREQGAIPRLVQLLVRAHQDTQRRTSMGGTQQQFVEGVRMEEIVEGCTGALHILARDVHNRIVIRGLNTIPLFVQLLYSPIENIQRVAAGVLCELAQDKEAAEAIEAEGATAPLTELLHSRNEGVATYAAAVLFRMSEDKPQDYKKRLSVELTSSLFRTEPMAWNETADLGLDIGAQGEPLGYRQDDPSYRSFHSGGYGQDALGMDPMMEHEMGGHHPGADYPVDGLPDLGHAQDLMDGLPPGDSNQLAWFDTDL
Assay: Nano-BRET target engagement assay (B-cat-Halo & TCF4-Luc in HEK293 cells)
Assay type: cell-based
Conditions: read-out: NanoBRET Abs IC50
Bear in mind: pIC50 is minus log10 of a mol/L concentration; give just that figure.

I have this compound here, CC(=O)N1CCC[C@]12CC=CCCCC1(CCCC=CCCCOC(=O)N3CC[C@@](C(=O)N[C@@H](Cc4ccsc4)C(=O)N[C@@H](Cc4csc5ccccc45)C(=O)N[C@H](C(N)=O)C(C)C)(C3)NC(=O)[C@H](CC(C)C)NC(=O)[C@H](Cc3ccccc3)NC(=O)[C@H](C)NC(=O)[C@H](CO)NC(=O)[C@H](Cc3cccc(C(=O)O)c3)NC(=O)[C@H](CC(=O)O)NC1=O)NC(=O)[C@H](CC(C)(C)C)NC(=O)[C@H](CC(=O)O)NC2=O (stereo partly drawn) [I-2190] , and I need its recorded pIC50. 4.48

Moving on to the next compound: CC(=O)N1CCC[C@]12CC=CCCCC1(CCCC=CCCCOC(=O)N3CC[C@@](C(=O)N[C@@H](Cc4ccsc4)C(=O)N[C@@H](Cc4csc5ccccc45)C(N)=O)(C3)NC(=O)[C@H](CC(N)=O)NC(=O)[C@H](Cc3ccccc3)NC(=O)[C@H](C)NC(=O)[C@H](C)NC(=O)[C@H](CC(=O)O)NC(=O)[C@H](CC(=O)O)NC1=O)NC(=O)[C@H](CC(C)(C)C)NC(=O)[C@H](CC(=O)O)NC2=O (stereo partly drawn) [I-785] 4.67

Would you mind doing CC(=O)N1CCC[C@]12CC=CCCCC1(CCCC=CCCCOC(=O)N3CC[C@@](C(=O)N[C@@H](Cc4ccsc4)C(=O)N[C@@H](Cc4csc5ccccc45)C(=O)N[C@@H](CCC(N)=O)C(=O)N[C@@H](CCCCNC(=O)c4ccc(CN5CCOCC5)cc4)C(N)=O)(C3)NC(=O)[C@H](CC(N)=O)NC(=O)[C@H](Cc3ccccc3)NC(=O)[C@H](C)NC(=O)[C@H](C)NC(=O)[C@H](CC(=O)O)NC(=O)[C@H](CC(=O)O)NC1=O)NC(=O)[C@H](CC(C)(C)C)NC(=O)[C@H](CC(=O)O)NC2=O (stereo partly drawn) [I-909] as well? 4.55

Next: CC(=O)N1CCC[C@]12CC=CCCCC1(CCCC=CCCCOC(=O)N3CC[C@@](C(=O)N[C@@H](Cc4ccccc4Cl)C(=O)N[C@@H](Cc4csc5ccccc45)C(=O)N[C@@H](C(N)=O)[C@H](C)O)(C3)NC(=O)[C@H](CO)NC(=O)[C@H](Cc3ccccc3)NC(=O)[C@H](C)NC(=O)[C@H](C)NC(=O)[C@H](CCC(=O)O)NC(=O)[C@H](CC(=O)O)NC1=O)NC(=O)[C@H](CC(C)(C)C)NC(=O)[C@H](CC(=O)O)NC2=O (stereo partly drawn) [I-1036] 4.78

Moving on to the next compound: CCCC[C@@H]1NC(=O)[C@H](Cc2cccc(C(=O)O)c2)NC(=O)[C@H](CC(=O)O)NC(=O)C2(CCCC=CCCCOC(=O)N3CC[C@@](C(=O)N[C@@H](Cc4ccsc4)C(=O)N[C@@H](Cc4csc5ccccc45)C(=O)N[C@H](C(N)=O)C(C)C)(C3)NC(=O)[C@H](CC(C)C)NC(=O)[C@H](Cc3ccccc3)NC(=O)[C@H](C)NC1=O)CCCC=CC[C@]1(CCCN1C(C)=O)C(=O)N[C@@H](CC(=O)O)C(=O)N[C@@H](CC(C)(C)C)C(=O)N2 (stereo partly drawn) [I-2189] 4.48

Now this one: CC(=O)N1CCC[C@]12CC=CCCCC1(CCCC=CCCCOC(=O)N3CC[C@@](C(=O)N[C@@H](Cc4ccccc4C(F)(F)F)C(=O)N[C@@H](Cc4csc5ccccc45)C(=O)N[C@@H](CCC(N)=O)C(N)=O)(C3)NC(=O)[C@H](CC(N)=O)NC(=O)[C@H](Cc3ccccc3)NC(=O)[C@H](C)NC(=O)[C@H](C)NC(=O)[C@H](CN(CC(=O)O)CC(F)(F)F)NC(=O)[C@H](CC(=O)O)NC1=O)NC(=O)[C@H](CC(C)(C)C)NC(=O)[C@H](CC(=O)O)NC2=O (stereo partly drawn) [I-927] 5.09

Do the same for CC(=O)N1CCC[C@]12CC=CCCCC1(CCCC=CCCCOC(=O)N3CC[C@@](C(=O)N[C@@H](Cc4ccsc4)C(=O)N[C@@H](Cc4csc5ccccc45)C(=O)N[C@@H](CC(N)=O)C(=O)N[C@@H](C)C(=O)N[C@@H](C)C(=O)N[C@H](C)C(N)=O)(C3)NC(=O)[C@H](CC(C)C)NC(=O)[C@H](Cc3ccccc3)NC(=O)[C@H](C)NC(=O)[C@H](C)NC(=O)[C@H](Cc3cccc(C(=O)O)c3)NC(=O)[C@H](CC(=O)O)NC1=O)NC(=O)[C@H](CC(C)(C)C)NC(=O)[C@H](CC(=O)O)NC2=O (stereo partly drawn) [I-2047] please 5.59

Next compound up: CC(=O)N1CCC[C@]12CC=CCCCC1(CCCC=CCCCOC(=O)N3CC[C@@](C(=O)N[C@@H](Cc4ccsc4)C(=O)N[C@@H](Cc4csc5ccccc45)C(=O)N[C@@H](CCC(N)=O)C(=O)NCCCCCCN)(C3)NC(=O)[C@H](CC(N)=O)NC(=O)[C@H](Cc3ccccc3)NC(=O)[C@H](C)NC(=O)[C@H](C)NC(=O)[C@H](CC(=O)O)NC(=O)[C@H](CC(=O)O)NC1=O)NC(=O)[C@H](CC(C)(C)C)NC(=O)[C@H](CC(=O)O)NC2=O (stereo partly drawn) [I-882] 4.38

----------
Assay: CHI Log D procedure
Assay type: physicochemical
Settings: pH 7.4, CHI Log D
OUTCOME MEASURE: chromatographic logD
Lab note: record just the number, no unit beside it.

Recorded chromatographic logD of CC(=O)N[C@@H](Cc1ccccc1)C(=O)N[C@@H](CC(=O)O)C(=O)N[C@@H](C)C(=O)N[C@]1(C)CCCCCCC=CCOC(=O)N2CC[C@@](C(=O)N[C@@H](Cc3ccccc3)C(=O)N[C@@H](Cc3c[nH]c4ccccc34)C(=O)N[C@@H](CCC(N)=O)C(N)=O)(C2)NC(=O)[C@H](C(C)C)NC(=O)[C@H](Cc2ccccc2)NC(=O)[C@H](C)NC(=O)[C@H](C)NC(=O)[C@H](CCC(N)=O)NC(=O)[C@H](CC(=O)O)NC1=O (single isomer, unassigned) , please. 1.5

----------
Molecular target: full-length beta-Catenin (Uniprot ID P35222) (Homo sapiens)
Construct: 10 nM full-length beta-Catenin (Uniprot ID P35222)
Sequence (P35222 whole entry, one chain of several): as the sequence (P35222 whole entry) above
Assay: Fluorescence polarization IC50 (beta-catenin / 5FAM-TCF4 10-53 competition)
Format: binding
Details: fluorescence polarization; read-out: beta-Catenin FP IC50
OUTCOME MEASURE: IC50
Include the unit right after the number.

Which IC50 is listed for CC(=O)N1CCC[C@]12CC=CCCCC1(CCCC=CCCCOC(=O)N3CC[C@@](C(=O)N[C@@H](Cc4ccsc4)C(=O)N[C@@H](Cc4csc5ccccc45)C(=O)N[C@@H](CC(N)=O)C(=O)N[C@@H](C)C(=O)N[C@@H](CC(C)C)C(=O)N[C@@H](CC(C)C)C(N)=O)(C3)NC(=O)[C@H](CC(C)C)NC(=O)[C@H](Cc3ccccc3)NC(=O)[C@H](C)NC(=O)[C@H](C)NC(=O)[C@H](Cc3cccc(C(=O)O)c3)NC(=O)[C@H](CC(=O)O)NC1=O)NC(=O)[C@H](CC(C)(C)C)NC(=O)[C@H](CC(=O)O)NC2=O (stereo partly shown) [I-2278] ? 120 nM
